Source listed as ChEMBL document CHEMBL4610060.

target: Coagulation factor XI (Homo sapiens); test: Inhibition of recombinant human activated coagulation factor XI using pyro-Glu-Pro-Arg-pNA as substrate by spectrophotometry
Sequence (P03951 19-387 limits assumed): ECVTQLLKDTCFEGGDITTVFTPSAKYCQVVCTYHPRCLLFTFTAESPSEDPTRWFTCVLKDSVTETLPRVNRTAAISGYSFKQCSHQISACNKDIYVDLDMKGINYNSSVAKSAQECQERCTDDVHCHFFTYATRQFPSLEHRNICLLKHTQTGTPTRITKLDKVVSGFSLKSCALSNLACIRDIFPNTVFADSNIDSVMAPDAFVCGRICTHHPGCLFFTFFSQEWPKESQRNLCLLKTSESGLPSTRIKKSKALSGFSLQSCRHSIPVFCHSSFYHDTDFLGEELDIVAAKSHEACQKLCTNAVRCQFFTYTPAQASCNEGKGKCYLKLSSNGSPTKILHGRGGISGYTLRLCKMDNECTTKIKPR
Sequence (P03951 388-625 limits assumed): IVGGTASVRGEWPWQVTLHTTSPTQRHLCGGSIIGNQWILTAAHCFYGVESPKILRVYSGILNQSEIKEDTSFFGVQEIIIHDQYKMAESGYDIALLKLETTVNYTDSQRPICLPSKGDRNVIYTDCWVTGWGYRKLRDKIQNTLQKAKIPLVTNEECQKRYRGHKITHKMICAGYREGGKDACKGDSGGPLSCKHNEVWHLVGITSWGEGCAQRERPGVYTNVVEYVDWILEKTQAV
pKi: −log10 of the molar value.
Decision: pKi >= 9 yields true (1), all other cases yield false (0).

Solved entries:
> print(dat)
                            compound.smiles  label.value
1  COC(=O)Nc1ccc2c(c1)N[C@H](C(F)(F)F)CCCC[C@H](NC(=O)/C=C/c1cc(Cl)ccc1-n1cnnn1)c1nc-2c[nH]1    false (0)
2  COC(=O)Nc1ccc2c(c1)N[C@@H](C(=O)N(C)C)CCCC[C@H](NC(=O)/C=C/c1cc(Cl)ccc1-n1cnnn1)c1nc-2c[nH]1     true (1)
3  CCOC(=O)[C@H]1CCCC[C@H](NC(=O)/C=C/c2cc(Cl)ccc2-n2cnnn2)c2cc(ccn2)-c2ccc(NC(=O)OC)cc2N1    false (0)

INPUT: Could you verify whether the entry `O=C(/C=C/c1cc(Cl)ccc1-n1cnnn1)N[C@H]1C/C=C/CCC(=O)Nc2ccccc2-c2c[nH]c1n2` shows pKi of no less than 9?
OUTPUT: false (0)

INPUT: Could you verify whether the entry `O=C(/C=C/c1cc(Cl)ccc1-n1cnnn1)N[C@H]1C/C=C/CCC(=O)Nc2ccc(F)cc2-c2c[nH]c1n2` shows pKi of no less than 9?
OUTPUT: false (0)
